- assayed.target: HLA-B*14:02
- assay.name: IEDB peptide-MHC binding, purified MHC/competitive/fluorescence; filed as Kd, often an IC50 or EC50 that approximates it; bounds were set here for any values at or beyond the usual limits of such assays
- measurement.conditions: source organism: Lyssavirus rabies
pKd: −log10 of the molar value.
measured.attribute: pKd

Lookup result for `YLDNVGVHI` ; measured pKd: ≤ 5.30

* * *

- assayed.target: HLA-A*02:11
- assay.name: IEDB peptide-MHC binding, purified MHC/direct/fluorescence; filed as Kd, often an IC50 or EC50 that approximates it; bounds were set here for any values at or beyond the usual limits of such assays
- measurement.conditions: source organism: Influenza A virus (A/Memphis/1/1986(H3N2))
pKd: −log10 of the molar value.
measured.attribute: pKd

Lab book: pKd of `NHDGIQAGV` noted as ≤ 4.70
